Catalogue of %Inh readings, one per entry.
System: CAMKK2
measurement.parameters: concentration: 1 μM,replicates: in singlicate; n = 1;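 note: KINOMEscan kinase panel screen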
// unit must come after the numeric part

>>> readout_value("COc1ccc(C[C@@H](CN)NC(=O)c2cc(Br)c(-c3ccnc4[nH]ccc34)s2)cc1.Cl.Cl")
"64%"
>>> readout_value("NC(=O)c1cc(-c2ccccc2)cc2c(C3CCNCC3)c[nH]c12")
"4%"
>>> readout_value("CC(C)N1C(=O)Cc2cc(Nc3ncc(C(F)(F)F)c(NCc4cccc(S(C)(=O)=O)c4)n3)ccc21")
"23%"
>>> readout_value("Cl.Cl.NC[C@H](Cc1ccc(C(F)(F)F)cc1)NC(=O)c1cc(Br)c(-c2ccnc3[nH]ccc23)s1")
"37%"
>>> readout_value("CN(C)CCOc1ccc(-c2cc(-c3c[nH]nc3-c3ccccn3)ccn2)cc1")
"2%"
>>> readout_value("C[C@@H]1CCN(C(=O)CC#N)C[C@@H]1N(C)c1ncnc2[nH]ccc12")
"0%"
>>> readout_value("O=C(NCCCN1CCOC1=O)c1cnc(NCc2cc(Cl)ccc2Cl)nc1NC1CCCC1")
"6%"
>>> readout_value("Cl.Cl.NC[C@H](CC1CCCCC1)NC(=O)c1cc(Br)c(-c2ccnc3[nH]ccc23)s1")
"20%"

# input Looking for the measured %Inh of `O=C(NCCNc1ccnc(NCc2ccc(F)cc2)n1)c1cc2ccccc2s1` , can you help?
# output 0%

# input Check `Cl.Oc1cc(-c2nc(-c3ccccc3)[nH]c2-c2ccncc2)ccc1Cl` too.
# output 4%

# input Check `C[C@H]1Oc2cc(cnc2N)-c2c(nn(C)c2C#N)CN(C)C(=O)c2ccc(F)cc21` too.
# output 61%

# input Check `CCN(CC)CCCCNc1ncc2cc(-c3c(Cl)cccc3Cl)c(NC(=O)NC(C)(C)C)nc2n1` too.
# output 23%

# input Check `Cc1cc(C(=O)Nc2ccc(Oc3ccc4nc(NC(=O)C5CC5)cn4n3)cc2)nn1-c1ccccc1` too.
# output 16%

# input Check Cl.Cl.Nc1nc(-c2ccc3c(N)n[nH]c3c2)cc(N2CCCC(NC(=O)c3ccccc3)C2)n1 (stereo not shown) too.
# output 14%

# input Check CN(C)CC(O)COc1ccc(Nc2nccc(-c3cnn4nc(N5CCOCC5)ccc34)n2)cc1 (stereo not shown) too.
# output 51%

# input Check `CCn1c(-c2nonc2N)nc2c(C#CC(C)(C)O)nc(OCCN)cc21.Cl.Cl` too.
# output 0%

# input Check `Cc1ccc(-n2nc(C(C)(C)C)cc2NC(=O)Nc2ccc(OCCN3CCOCC3)c3ccccc23)cc1` too.
# output 0%

# input Check `Cc1cc2cn[nH]c2cc1-c1cccc2c(N)c(C(N)=O)nnc12` too.
# output 7%

# input Check `C[C@@H](Oc1cc(-c2cnn(C3CCNCC3)c2)cnc1N)c1c(Cl)ccc(F)c1Cl` too.
# output 24%

---

Tested on: MYLK
measurement.parameters: concentration: 1 μM,replicates: in singlicate; n = 1
Catalogue of %Inh readings, one per entry.
Express the result in % but write the number alone.

>>> readout_value("Cc1occc1-c1nc(N)c(OC[C@@H](N)Cc2c[nH]c3ccccc23)cc1-c1cc2c(C)n[nH]c2cn1")
37
>>> readout_value("CCN(CC)CCOc1ccc(Nc2ncc3cc(-c4c(Cl)cccc4Cl)c(=O)n(C)c3n2)cc1")
29
>>> readout_value("Nc1nc(Nc2ccccc2)cc(-c2ccc3c(N)n[nH]c3c2)n1")
0
>>> readout_value("CN(C)CC(O)COc1ccc(Nc2nccc(-c3cnn4nc(N5CCOCC5)ccc34)n2)cc1 (centres unmarked)")
48
>>> readout_value("Cc1ccc(-n2nc(C(C)(C)C)cc2NC(=O)Nc2ccc(OCCN3CCOCC3)c3ccccc23)cc1")
3
>>> readout_value("C[C@@H]1CCN(C(=O)CC#N)C[C@@H]1N(C)c1ncnc2[nH]ccc12")
0

# input Param readout= %Inh; system= MYLK; entry= `O=C(NCCNc1ccnc(NCc2ccc(F)cc2)n1)c1cc2ccccc2s1` ; returns value.
# output 14

# input Check `CNC(=O)c1ccccc1Sc1ccc2c(/C=C/c3ccccn3)n[nH]c2c1` too.
# output 14
